Listed here are molecules together with their documented log10(MIC).
Tested on: Streptococcus pneumoniae
Assay: Inhibition of growth of Streptococcus pneumonia
Type: functional
Recall that a logarithmic scale is used here: each number is log10 of MIC in µg/mL.

CC1COc2c(N3CCN(C)CC3)c(F)cc3c(=O)c(C(=O)O)cn1c23 (configuration not stated): -0.10
O=C(O)c1cn2c3c(c(N4CCNCC4)c(F)cc3c1=O)OCC21CC1: 1.10
CC1COc2c(N3CCNCC3)c(F)cc3c(=O)c(C(=O)O)cn1c23 (configuration not stated): 0.49
CN(C)CC1CCN(c2c(F)cc3c(=O)c(C(=O)O)cn4c3c2OCC42CC2)C1 (configuration not stated): -0.40
CC1COc2c(N3CCC(CN(C)C)C3)c(F)cc3c(=O)c(C(=O)O)cn1c23 (configuration not stated): -1.30
CCNCC1CCN(c2c(F)cc3c(=O)c(C(=O)O)cn4c3c2OCC4C)C1 (configuration not stated): -1.60

### Prompt Return log10(MIC) (reported value) for this molecule: CCNCC1CCN(c2c(F)cc3c(=O)c(C(=O)O)cn4c3c2OCC42CC2)C1 (configuration not stated)
### Response -1.30
